# study-system: T1, human CD19 on Raji cells (human, UniProt P15391 20-556)
# T1 construct: whole, on cells
# T1 sequence (looked up): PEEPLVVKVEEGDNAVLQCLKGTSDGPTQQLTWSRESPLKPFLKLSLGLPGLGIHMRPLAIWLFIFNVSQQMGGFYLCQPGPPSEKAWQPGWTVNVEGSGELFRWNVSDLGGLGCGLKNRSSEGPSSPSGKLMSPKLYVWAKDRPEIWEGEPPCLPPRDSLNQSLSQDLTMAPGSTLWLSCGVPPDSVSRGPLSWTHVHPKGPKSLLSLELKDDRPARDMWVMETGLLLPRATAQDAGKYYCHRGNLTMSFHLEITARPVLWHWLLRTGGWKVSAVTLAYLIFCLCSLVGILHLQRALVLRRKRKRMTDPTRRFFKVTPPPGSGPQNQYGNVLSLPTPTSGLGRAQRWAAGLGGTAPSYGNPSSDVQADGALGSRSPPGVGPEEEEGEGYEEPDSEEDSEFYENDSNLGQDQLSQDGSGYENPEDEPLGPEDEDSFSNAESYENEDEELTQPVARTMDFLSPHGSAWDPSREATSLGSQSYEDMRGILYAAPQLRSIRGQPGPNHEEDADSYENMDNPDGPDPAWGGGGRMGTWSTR
# experiment-summary: FACS on Raji cells
pEC50: −log10 of the molar value.
Outcome: 1 (yes) for pEC50 of at least 9; 0 (no) for anything lower.

Recorded results for 2 binders are shown here.
binder	group-label
F5.2.9 (antibody, human IgG1, V domains shown, human-murine chimeric antibody, human IgG1) VH: QVTLKESGPGILQPSQTLSLTCSFSGFSLSTFGLGVGWVRQPSGKGLEWLAHIWWDDDKYYNPALKSRVTVSKETSKNQVFFKIANVDTADSATYYCARLSRGLRRDVVYAMDHWGQGTSVTVSS VL: DIQMTQTTSSLSASLGDRVTISCRASQDISNYLNWYQQKPDGSVKLLISYVSRLQSGVPSRFRGSGSGTDYSLTISNLDQEDIATYFCQQGIAFPYTFGGGTKLDIK	0 (no)
F2.15.26 (antibody, human IgG1, V domains shown, human-murine chimeric antibody, human IgG1) VH: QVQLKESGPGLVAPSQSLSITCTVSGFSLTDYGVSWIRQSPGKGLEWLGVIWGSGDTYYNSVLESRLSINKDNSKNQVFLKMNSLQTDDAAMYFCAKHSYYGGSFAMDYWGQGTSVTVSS VL: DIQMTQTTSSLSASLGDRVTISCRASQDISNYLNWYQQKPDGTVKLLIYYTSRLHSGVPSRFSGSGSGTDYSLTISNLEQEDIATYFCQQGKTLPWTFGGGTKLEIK	1 (yes)

Test whether the binder F3.64.4 (antibody, human IgG1, V domains shown, human-murine chimeric antibody, human IgG1) VH: EVQLQQSGPELVKPGASVKISCKASGYTFTDYHINWVKQSHGKSPEWIGDINPNNGGTTYNQKFKDKATLTVDKSSSTAFMELRSLTSEDSAVYYCARFITTVVAWYFDVWGTGTTVTVSS VL: DIQMTQSPASLSVSVGETVTITCRASENIYSNLAWYQQKQGKSPQLLVYAATNLADGVPSRFSGSGSGTQYSLKINSLQSEDFGNYYCQRFWDTPRTFGGGTKLEIK records pEC50 of 9 or higher.
1 (yes)
